test: clinical; type: in vivo; details: both sexes, human, in vivo, sc, 80 mg
readout: AUC(0-inf) (ng·h/mL)
API: value field is a number in ng·h/mL; no unit string.

Exercise: Suppose we examine the molecule CCC(C)(C)C(=O)O[C@H]1C[C@@H](C)C=C2C=C[C@H](C)[C@H](CC[C@@H](O)C[C@@H](O)CC(=O)O)[C@H]21 ; what AUC(0-inf) value has been reported?
Solution: 39.9

----------
assay: clinical; assay type: in vivo; conditions: both sexes, human, in vivo, po, 80 mg
readout: Tmax (h)
API: value field is a number in h; no unit string.

Exercise: Suppose we examine the molecule CCC(C)(C)C(=O)O[C@H]1C[C@@H](C)C=C2C=C[C@H](C)[C@H](CC[C@@H](O)C[C@@H](O)CC(=O)O)[C@H]21 ; what Tmax value has been reported?
Solution: 4.5

----------
experiment: Plasma PK of simvastatin and simvastatin acid with (Treatment A) and without (Treatment B) TH9507, two-way crossover studies; type: in vivo; conditions: both sexes, human, plasma, sc, 80 mg; read-out: T1/2, Treatment A (converted)
readout: half-life (min)
API: value field is a number in min; no unit string.

Exercise: Suppose we examine the molecule CCC(C)(C)C(=O)O[C@H]1C[C@@H](C)C=C2C=C[C@H](C)[C@H](CC[C@@H]3C[C@@H](O)CC(=O)O3)[C@H]21 [Simvastatin, reference compound] ; what half-life value has been reported?
Solution: 457

----------
Test: clinical
Format: in vivo
Details: both sexes, human, in vivo, sc, 80 mg
Description: […] […] N=58 healthy adult (male and female) subjects were enrolled. Dosing occurred in two groups. […] PK/statistics: PK parameters were calculated using standard noncompartmental approaches. […] The final ANOVA models included group, sequence, treatment, and period nested within group as fixed effects and subject nested within group-by-sequence as a random effect. The treatment-by-group term was excluded from the models for the groups combined, to be conservative.
readout: AUC(0-t) (ng·h/mL)
API: value field is a number in ng·h/mL; no unit string.

Exercise: Suppose we examine the compound CCC(C)(C)C(=O)O[C@H]1C[C@@H](C)C=C2C=C[C@H](C)[C@H](CC[C@@H](O)C[C@@H](O)CC(=O)O)[C@H]21 [Simvastatin Acid, simvastatin acid] ; what AUC(0-t) value has been reported?
Solution: 37.5

----------
assay: clinical; type: in vivo; settings: both sexes, human, in vivo, sc, 80 mg
readout: half-life (h)
API: value field is a number in h; no unit string.

Exercise: Suppose we examine the molecule CCC(C)(C)C(=O)O[C@H]1C[C@@H](C)C=C2C=C[C@H](C)[C@H](CC[C@@H](O)C[C@@H](O)CC(=O)O)[C@H]21 ; what half-life value has been reported?
Solution: 6.91

----------
test: clinical; type: in vivo; details: both sexes, human, in vivo, po, 80 mg
readout: half-life (min)
API: value field is a number in min; no unit string.

Exercise: Suppose we examine the compound CCC(C)(C)C(=O)O[C@H]1C[C@@H](C)C=C2C=C[C@H](C)[C@H](CC[C@@H](O)C[C@@H](O)CC(=O)O)[C@H]21 ; what half-life value has been reported?
Solution: 484

----------
experiment: clinical; format: in vivo; conditions: both sexes, human, in vivo, sc, 80 mg
readout: Cmax (ng/mL)
API: value field is a number in ng/mL; no unit string.

Exercise: Suppose we examine the molecule CCC(C)(C)C(=O)O[C@H]1C[C@@H](C)C=C2C=C[C@H](C)[C@H](CC[C@@H](O)C[C@@H](O)CC(=O)O)[C@H]21 ; what Cmax value has been reported?
Solution: 4.28
